Data credit: the supplement of paper PMC10307832

Reported relative viability is given for each of the following molecules.
tested on: COR-L 105; experiment: relative viability (nuclei count vs DMSO), 5 days (fraction); higher = more cells survive; conditions: first compound 0.006325 µM
Please give the numeric answer without any surrounding text.

Please review the following examples before continuing.
molecule	targetOfAssay	readoutType	resultNumber
CCNC(=O)c1noc(-c2cc(C(C)C)c(O)cc2O)c1-c1ccc(CN2CCOCC2)cc1 [Luminespib] + O=C(CCCCCCC(=O)Nc1ccccc1)NO [Vorinostat] (partner 1 µM)	COR-L 105	relative viability	0.84
CCNC(=O)c1noc(-c2cc(C(C)C)c(O)cc2O)c1-c1ccc(CN2CCOCC2)cc1 [Luminespib] + Nc1nc2[nH]cc(CCc3ccc(C(=O)N[C@@H](CCC(=O)O)C(=O)O)cc3)c2c(=O)[nH]1 [Pemetrexed] (partner 0.2 µM)	COR-L 105	relative viability	0.952
CCNC(=O)c1noc(-c2cc(C(C)C)c(O)cc2O)c1-c1ccc(CN2CCOCC2)cc1 [Luminespib] + CS(=O)(=O)N1CCN(Cc2cc3nc(-c4cccc5[nH]ncc45)nc(N4CCOCC4)c3s2)CC1 [Pictilisib] (partner 1 µM)	COR-L 105	relative viability	0.488
CCNC(=O)c1noc(-c2cc(C(C)C)c(O)cc2O)c1-c1ccc(CN2CCOCC2)cc1 [Luminespib] + C[C@@H](Oc1cc(-c2cnn(C3CCNCC3)c2)cnc1N)c1c(Cl)ccc(F)c1Cl [Crizotinib] (partner 1 µM)	COR-L 105	relative viability	0.897
CCNC(=O)c1noc(-c2cc(C(C)C)c(O)cc2O)c1-c1ccc(CN2CCOCC2)cc1 [Luminespib] + Cc1cc(Nc2cc(N3CCN(C)CC3)nc(Sc3ccc(NC(=O)C4CC4)cc3)n2)n[nH]1 [Tozasertib] (partner 0.1 µM)	COR-L 105	relative viability	0.385
CCNC(=O)c1noc(-c2cc(C(C)C)c(O)cc2O)c1-c1ccc(CN2CCOCC2)cc1 [Luminespib] + CC(C)C[C@H](NC(=O)[C@H](Cc1ccccc1)NC(=O)c1cnccn1)B(O)O [Bortezomib] (partner 0.002 µM)	COR-L 105	relative viability	0.75
CCNC(=O)c1noc(-c2cc(C(C)C)c(O)cc2O)c1-c1ccc(CN2CCOCC2)cc1 [Luminespib] + CC(=O)c1c(C)c2cnc(Nc3ccc(N4CCNCC4)cn3)nc2n(C2CCCC2)c1=O [Palbociclib] (partner 0.5 µM)	COR-L 105	relative viability	0.445

Moving on to the next molecule.
Enter reported relative viability observed with COR-L 105 for CCNC(=O)c1noc(-c2cc(C(C)C)c(O)cc2O)c1-c1ccc(CN2CCOCC2)cc1 [Luminespib] + O=C(c1cc(Cc2n[nH]c(=O)c3ccccc23)ccc1F)N1CCN(C(=O)C2CC2)CC1 [Olaparib] (partner 8 µM) 0.647

----------
system: NCI-H1993; assay: relative viability (nuclei count vs DMSO), 5 days (fraction); higher = more cells survive; conditions: first compound 0.2 µM
Reported relative viability is given for each of the following compounds.
Please give the numeric answer without any surrounding text.

compound	relative viability
CCNC(=O)c1noc(-c2cc(C(C)C)c(O)cc2O)c1-c1ccc(CN2CCOCC2)cc1 [Luminespib] + Cc1nc(Nc2ncc(C(=O)Nc3c(C)cccc3Cl)s2)cc(N2CCN(CCO)CC2)n1 [Dasatinib] (partner 0.075 µM)	0.353
CCNC(=O)c1noc(-c2cc(C(C)C)c(O)cc2O)c1-c1ccc(CN2CCOCC2)cc1 [Luminespib] + N=C(N)NC(=N)NCCc1ccccc1 [Phenformin] (partner 250 µM)	0.36
CCNC(=O)c1noc(-c2cc(C(C)C)c(O)cc2O)c1-c1ccc(CN2CCOCC2)cc1 [Luminespib] + NC(=O)Nc1cc(-c2cccc(F)c2)sc1C(=O)N[C@H]1CCCNC1 [AZD7762] (partner 0.2 µM)	0.237
CCNC(=O)c1noc(-c2cc(C(C)C)c(O)cc2O)c1-c1ccc(CN2CCOCC2)cc1 [Luminespib] + COc1cccc2cc(-c3nc([C@H]4CC[C@H](C(=O)O)CC4)n4ncnc(N)c34)[nH]c12 [OSI-027] (partner 0.5 µM)	0.389

Moving on to the next compound.
Please report the recorded relative viability for Cc1csc(=NC2CCCCC2)n1/N=C/c1ccc(O)c(O)c1O [MIM1] + CCNC(=O)c1noc(-c2cc(C(C)C)c(O)cc2O)c1-c1ccc(CN2CCOCC2)cc1 [Luminespib] (partner 0.01 µM) . 0.441

----------
system: EMC-BAC-2; assay: relative viability (nuclei count vs DMSO), 5 days (fraction); higher = more cells survive; conditions: first compound 0.1 µM
readoutType: relative viability

Please review the following examples before continuing.
molecule	readoutType	result
Cc1cn(-c2cc(NC(=O)c3ccc(C)c(Nc4nccc(-c5cccnc5)n4)c3)cc(C(F)(F)F)c2)cn1 [Nilotinib] + Cc1nc(Nc2ncc(C(=O)Nc3c(C)cccc3Cl)s2)cc(N2CCN(CCO)CC2)n1 [Dasatinib] (partner 0.075 µM)	relative viability	0.296
Cc1cn(-c2cc(NC(=O)c3ccc(C)c(Nc4nccc(-c5cccnc5)n4)c3)cc(C(F)(F)F)c2)cn1 [Nilotinib] + NC(=O)Nc1cc(-c2cccc(F)c2)sc1C(=O)N[C@H]1CCCNC1 [AZD7762] (partner 0.2 µM)	relative viability	1.03
Cc1cn(-c2cc(NC(=O)c3ccc(C)c(Nc4nccc(-c5cccnc5)n4)c3)cc(C(F)(F)F)c2)cn1 [Nilotinib] + N=C(N)NC(=N)NCCc1ccccc1 [Phenformin] (partner 250 µM)	relative viability	0.484

Enter reported relative viability observed with EMC-BAC-2 for Cc1cn(-c2cc(NC(=O)c3ccc(C)c(Nc4nccc(-c5cccnc5)n4)c3)cc(C(F)(F)F)c2)cn1 [Nilotinib] + CS(=O)(=O)N1CCN(Cc2cc3nc(-c4cccc5[nH]ncc45)nc(N4CCOCC4)c3s2)CC1 [Pictilisib] (partner 1 µM) 0.479

----------
Reported relative viability is given for each of the following molecules.
tested on: NCI-H1734; assay: relative viability (nuclei count vs DMSO), 5 days (fraction); higher = more cells survive; details: first compound 0.06325 µM
Please give the numeric answer without any surrounding text.

molecule	targetOfAssay	readoutType	resultNumber
CCNC(=O)c1noc(-c2cc(C(C)C)c(O)cc2O)c1-c1ccc(CN2CCOCC2)cc1 [Luminespib] + CC(=O)Nc1cccc(-n2c(=O)n(C3CC3)c(=O)c3c(Nc4ccc(I)cc4F)n(C)c(=O)c(C)c32)c1 [Trametinib] (partner 0.02 µM)	NCI-H1734	relative viability	0.199
CCNC(=O)c1noc(-c2cc(C(C)C)c(O)cc2O)c1-c1ccc(CN2CCOCC2)cc1 [Luminespib] + COc1cccc2cc(-c3nc([C@H]4CC[C@H](C(=O)O)CC4)n4ncnc(N)c34)[nH]c12 [OSI-027] (partner 0.5 µM)	NCI-H1734	relative viability	0.168
CCNC(=O)c1noc(-c2cc(C(C)C)c(O)cc2O)c1-c1ccc(CN2CCOCC2)cc1 [Luminespib] + CS(=O)(=O)N1CCN(Cc2cc3nc(-c4cccc5[nH]ncc45)nc(N4CCOCC4)c3s2)CC1 [Pictilisib] (partner 1 µM)	NCI-H1734	relative viability	0.14

Moving on to the next molecule.
Please report the recorded relative viability for CCNC(=O)c1noc(-c2cc(C(C)C)c(O)cc2O)c1-c1ccc(CN2CCOCC2)cc1 [Luminespib] + NC(=O)Nc1cc(-c2cccc(F)c2)sc1C(=O)N[C@H]1CCCNC1 [AZD7762] (partner 0.2 µM) . 0.0991

----------
test system: HCC-44; test: relative viability (nuclei count vs DMSO), 5 days (fraction); higher = more cells survive; conditions: first compound 0.6325 µM
readoutType: relative viability
Please give the numeric answer without any surrounding text.

Please review the following examples before continuing.
molecule	readoutType	resultNumber
Cc1csc(=NC2CCCCC2)n1/N=C/c1ccc(O)c(O)c1O [MIM1] + Nc1nc2[nH]cc(CCc3ccc(C(=O)N[C@@H](CCC(=O)O)C(=O)O)cc3)c2c(=O)[nH]1 [Pemetrexed] (partner 0.2 µM)	relative viability	0.566
Cc1csc(=NC2CCCCC2)n1/N=C/c1ccc(O)c(O)c1O [MIM1] + CC(=O)c1c(C)c2cnc(Nc3ccc(N4CCNCC4)cn3)nc2n(C2CCCC2)c1=O [Palbociclib] (partner 0.5 µM)	relative viability	0.981
Cc1csc(=NC2CCCCC2)n1/N=C/c1ccc(O)c(O)c1O [MIM1] + CC(=O)Nc1cccc(-n2c(=O)n(C3CC3)c(=O)c3c(Nc4ccc(I)cc4F)n(C)c(=O)c(C)c32)c1 [Trametinib] (partner 0.02 µM)	relative viability	1.07

Moving on to the next molecule.
Enter reported relative viability observed with HCC-44 for CN1CCN(CCOc2cc(OC3CCOCC3)c3c(Nc4c(Cl)ccc5c4OCO5)ncnc3c2)CC1 [Saracatinib] + CS(=O)(=O)CCNCc1ccc(-c2ccc3ncnc(Nc4ccc(OCc5cccc(F)c5)c(Cl)c4)c3c2)o1 [Lapatinib] (partner 2 µM) 1.17
